Target: Toll-like receptor 8 (Homo sapiens, UniProt Q9NR97)
Sequence (Q9NR97 whole entry): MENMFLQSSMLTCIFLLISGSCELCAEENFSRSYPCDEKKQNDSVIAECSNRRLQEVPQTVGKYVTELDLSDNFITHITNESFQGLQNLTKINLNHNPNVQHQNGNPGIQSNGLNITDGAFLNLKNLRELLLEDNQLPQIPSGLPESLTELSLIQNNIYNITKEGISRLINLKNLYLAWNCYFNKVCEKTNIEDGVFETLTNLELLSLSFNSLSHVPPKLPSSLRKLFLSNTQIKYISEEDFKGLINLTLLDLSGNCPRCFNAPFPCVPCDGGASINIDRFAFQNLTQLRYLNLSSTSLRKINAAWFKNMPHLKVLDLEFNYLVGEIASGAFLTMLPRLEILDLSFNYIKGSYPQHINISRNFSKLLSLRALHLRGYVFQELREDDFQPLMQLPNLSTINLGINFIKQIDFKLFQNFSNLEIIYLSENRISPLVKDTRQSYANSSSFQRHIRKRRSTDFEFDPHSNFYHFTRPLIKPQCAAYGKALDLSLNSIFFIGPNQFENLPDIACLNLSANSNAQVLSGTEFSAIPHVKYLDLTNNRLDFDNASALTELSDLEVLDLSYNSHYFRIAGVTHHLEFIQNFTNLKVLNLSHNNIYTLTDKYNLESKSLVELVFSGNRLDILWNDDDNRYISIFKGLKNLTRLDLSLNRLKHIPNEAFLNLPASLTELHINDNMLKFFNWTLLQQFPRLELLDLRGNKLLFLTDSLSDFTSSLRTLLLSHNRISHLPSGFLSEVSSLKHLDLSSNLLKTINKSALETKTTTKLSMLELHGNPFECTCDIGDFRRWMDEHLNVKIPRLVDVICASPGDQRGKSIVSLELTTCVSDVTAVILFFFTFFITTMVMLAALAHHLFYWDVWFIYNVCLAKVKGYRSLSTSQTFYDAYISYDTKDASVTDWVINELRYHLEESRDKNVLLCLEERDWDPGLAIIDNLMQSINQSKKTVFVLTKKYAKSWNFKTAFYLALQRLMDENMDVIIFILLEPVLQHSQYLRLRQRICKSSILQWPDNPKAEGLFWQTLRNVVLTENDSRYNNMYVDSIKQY
Test: Agonist activity at human TLR8
PROPERTY MEASURED: EC50

Entry `CCCCNc1nc(N)nc2cnn(Cc3ccc(CNC4CCC4)cc3OC)c12` has what EC50?
> 5 µM

###

Assay: Clearance in Balb/c mouse at 0.5 mg/kg, iv measured after 2 hrs by LC-MS analysis
Format: ADME, organism-based
Details: in vivo
PROPERTY MEASURED: clearance (L/h/kg)
One number for each entry, in L/h/kg.

Recorded clearance of `CCC[C@@H](CCO)Nc1nc(N)nc2cnn(Cc3ccc(CNC4CCOCC4)cc3OC)c12` , please.
9.6

###

Test: in vitro
Conditions: PHA-activated T cells
Record form. Attribute: IC50. Fill in for each entry.

{"columns": ["INPUT SMILES", "IC50"],
 "data": [
  ["CCC[C@@H](CCO)Nc1nc(N)nc2cnn(Cc3ccc(CNC4CCOCC4)cc3OC)c12", "> 25 µM"],
  ["CC[C@@H](CCO)Nc1nc(N)nc2cnn(Cc3ccc(CNC4CCOCC4)cc3OC)c12", "> 25 µM"],
  ["CCCCNc1nc(N)nc2cnn(Cc3ccc(CNC4CCOCC4)cc3OC)c12", "22 µM"],
  ["CCC[C@@H](CO)Nc1nc(N)nc2cnn(Cc3ccc(CNC4CCOCC4)cc3OC)c12", "> 25 µM"],
  ["CCC[C@@H](CCO)Nc1nc(N)nc2cnn(Cc3ccc(CNC4CCOCC4)cc3F)c12", "> 25 µM"],
  ["COc1cc(CNC2CCOCC2)ccc1Cn1ncc2nc(N)nc(N[C@H](CCO)C3CC3)c21", "> 25 µM"],
  ["CCC[C@@H](CCO)Nc1nc(N)nc2cnn(Cc3ccc(CNC4CCOCC4)cc3)c12", "> 25 µM"],
  ["CCC[C@@H](CCO)Nc1nc(N)nc2cnn(Cc3ccc(CNC4CCOCC4)nc3)c12", "> 25 µM"]
]}

Batch lookup, IC50 per entry.
1. CCC[C@@H](CCO)Nc1nc(N)nc2cnn(Cc3ccc(CNC4CCOCC4)c4cccnc34)c12
2. CCC[C@@H](C)Nc1nc(N)nc2cnn(Cc3ccc(CNC4CCOCC4)cc3OC)c12
3. CCC[C@@H](CCO)Nc1nc(N)nc2cnn(Cc3ccc(CNC4CCOCC4)cc3OC(F)F)c12

> 25 µM
24.7 µM
7 µM

###

Assay: Metabolic stability in mouse liver microsomes assessed as compound remaining
Type: ADME, Microsome
Exercise: state measured Stability for each of the compounds provided.

Please review the following examples before continuing.
{"columns": ["COMPOUND", "PROPERTY MEASURED", "RESULT"],
 "data": [
  ["CCC[C@@H](CCNC(C)=O)Nc1nc(N)nc2cnn(Cc3ccc(CNC4CCOCC4)cc3OC)c12", "Stability", "91%"],
  ["CCC[C@@H](CCO)Nc1nc(N)nc2cnn(Cc3ccc(CNC4CCOCC4)cc3OC(F)F)c12", "Stability", "55%"],
  ["CCCCNc1nc(N)nc2cnn(Cc3ccc(C(=O)NC4CCOCC4)cc3OC)c12", "Stability", "62%"],
  ["CCCCNc1nc(N)nc2cnn(Cc3ccc(CN4CC5CC4CN5)cc3OC)c12 (stereo not given)", "Stability", "10%"],
  ["CCCCNc1nc(N)nc2cnn(Cc3ccc(CNC4CCC4)cc3OC)c12", "Stability", "2%"]
]}

Batch: Stability for all items listed.
1. CCCCN(C)c1nc(N)nc2cnn(Cc3ccc(CNC4CCOCC4)cc3OC)c12
2. CCCCNc1nc(N)nc2cnn(Cc3ccc(CN4CCCCC4)cc3OC)c12
3. CCC[C@@H](CCO)Nc1nc(N)nc2cnn(Cc3ccc(CNC4CCOCC4)nc3)c12
4. CCC[C@@H](CO)Nc1nc(N)nc2cnn(Cc3ccc(CNC4CCOCC4)cc3OC)c12
5. CCC[C@@H](C)Nc1nc(N)nc2cnn(Cc3ccc(CNC4CCOCC4)cc3OC)c12

["11%", "2%", "91%", "77%", "30%"]
